- Test system: MOLT-4 leukemia
- assay_name: NCI-60 one-dose screen, 48 h (100 = growth as untreated, 0 = no growth, -100 = all killed)
- setup_conditions: 10 µM unless noted
- Procedure: Growth inhibition of the MOLT-4 human tumor cell line is measured as a screen for anti-cancer activity. Cells are grown in 96 well plates and exposed to the test compound for 48 hours. Compounds are tested at a single concentration, which is 10^-5 M for most compounds. The reported endpoint is percent growth (GI% or GIPRCNT), where numbers from 0 - 100% represent growth inhibition, and numbers from -100% - 0 represent cell death. For example, a value of 40 represents 60% growth inhibition. […]
Compounds without any hit were thinned out: in the full panel of roughly 83,000, 20% have a hit.
measured_endpoint: growth (%)

| molecule | assay_target | measured_endpoint | observed_result |
| --- | --- | --- | --- |
| COc1ccc(C2c3sc4c(C)cccc4c3Oc3nc(CC(=O)Nc4ccccc4)[nH]c(=O)c32)cc1 (centres undefined) | MOLT-4 leukemia | growth | 101 |
| COc1c(N2CC3CCCNC3C2)c(F)cc2c(=O)c(C(=O)N/N=C/c3ccc4c(c3)OCO4)cn(C3CC3)c12 (centres undefined) | MOLT-4 leukemia | growth | 59.3 |
| NC(N)=Nc1ccc(Oc2ccc(Nc3ccc(Cl)c(C(F)(F)F)c3)cc2)cc1 | MOLT-4 leukemia | growth | 18.5 |
| COc1cc(-c2nn(C(C)(C)C)cc2-c2ccnc(NCCCNS(=O)(=O)c3ccc(F)cc3)n2)ccc1Cl | MOLT-4 leukemia | growth | 49.5 |
| Oc1cccc2ccc(-c3nnc(SCc4ccc(O)c5ncccc45)n3-c3ccccc3)nc12 | MOLT-4 leukemia | growth | 12.2 |
| NC/C(=C/F)COc1ccc2nc(NCc3cccnc3)oc2c1 | MOLT-4 leukemia | growth | 106 |
| O=c1c2ccccc2nc(COc2ccccc2)n1NS(=O)(=O)c1ccc(Cl)cc1 | MOLT-4 leukemia | growth | 69.5 |
| C=CC(=O)N1CCC=C(c2cc3c(N[C@H](C)c4ccccc4)ncnc3[nH]2)C1 | MOLT-4 leukemia | growth | 93.4 |
| NC(=O)c1cccc(C#CCNC[C@H]2C[C@@H](n3ccc4c(Cl)ncnc43)[C@H](O)[C@@H]2O)c1 | MOLT-4 leukemia | growth | 114 |

* * *

- System: NCI-H322M lung
- assay_name: NCI-60 one-dose screen, 48 h
- setup_conditions: 10 µM unless noted
This is part of a sample that, as a whole, favours compounds with a hit. Of some 83,000 tested, about 20% had one in any assay. Calls of active or inactive are those of the source. The calls were made as follows: active = growth percent below 10; inactive = the rest.
Classes used: active, inactive

| molecule | assigned_class |
| --- | --- |
| CCc1nn2c(C)cc(C)nc2c1Cc1ccc(/C=C/CN2CCN(CCOCCOCCN3CCN(C/C=C/c4ccc(Cc5c(CC)nn6c(C)cc(C)nc56)cc4)CC3)CC2)cc1 | active |
| COc1ccc([C@@H]2c3[nH]c4ccccc4c3C[C@H]3C(=O)N(C4CCN(CC5CCCCC5)CC4)CC(=O)N23)c(OC)c1 | inactive |
| COc1cc(Nc2c(C#N)cnn3cc(-c4cnn(CC(C)(C)O)c4)cc23)ccc1Cl | inactive |
| COc1ccc(CCOc2cc3c(cc2OC)CCN(C(=O)NCc2cocn2)C3c2ccc(C)cc2C)cc1 (stereo not drawn) | inactive |
| c1ccc(C(c2nc3ncncc3[nH]2)N2CSc3nc4ccccc4n3C2)cc1 (stereo not drawn) | inactive |
| CCN(CC)c1cn(-c2ccc(S(N)(=O)=O)cc2)nn1 | inactive |
| CNCc1cccc2c1OCCCCCCC(C)(O)CC(C)(C)S(=O)(=O)c1ccc(cc1)-c1cnc(N)c(n1)C(=O)N2 (stereo not drawn) | inactive |
| O=C1CCC(N2C(=O)c3ccc(NS(=O)(=O)c4ccccc4OC(F)(F)F)cc3C2=O)C(=O)N1 (stereo not drawn) | inactive |
